Target sequence: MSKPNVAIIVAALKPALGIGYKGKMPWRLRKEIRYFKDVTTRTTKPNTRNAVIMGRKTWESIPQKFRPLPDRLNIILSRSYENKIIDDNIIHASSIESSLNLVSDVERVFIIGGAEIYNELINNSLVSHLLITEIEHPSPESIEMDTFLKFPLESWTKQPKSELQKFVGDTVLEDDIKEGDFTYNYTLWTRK
We begin with IC50 values for the protein given by its sequence, as collected from the published literature.
quantity: IC50 (nM)

// below: answered compounds
>  <compound>
Nc1ncc(NCc2ccccc2Cl)c(N)n1

>  <units>
nM

>  <reported.measurement>
6630

$$$$
>  <compound>
COc1cc(C(C#Cc2cnc(N)nc2N)OC)cc(OC)c1OC (racemic)

>  <units>
nM

>  <reported.measurement>
2500

$$$$
>  <compound>
COc1cc(C(C)C#Cc2c(C)nc(N)nc2N)cc(OC)c1OC (racemic)

>  <units>
nM

>  <reported.measurement>
110

$$$$
>  <compound>
Cc1nc(N)nc(N)c1Cc1ccccc1

>  <units>
nM

>  <reported.measurement>
1850

$$$$
>  <compound>
COc1cc(C(C)(C)C#Cc2c(C)nc(N)nc2N)cc(OC)c1OC

>  <units>
nM

>  <reported.measurement>
33

$$$$
>  <compound>
Nc1ncc(Cc2cccc3ccccc23)c(N)n1

>  <units>
nM

>  <reported.measurement>
53500

$$$$
>  <compound>
Nc1ncc(OCc2cccc3ccccc23)c(N)n1

>  <units>
nM

>  <reported.measurement>
430

$$$$
>  <compound>
COc1cc(C(C#Cc2c(C)nc(N)nc2N)C(C)C)cc(OC)c1OC (racemic)

>  <units>
nM

>  <reported.measurement>
33

$$$$

[P] COc1cc(-c2ccccc2C)cc(C(C)C#Cc2c(C)nc(N)nc2N)c1 (racemic)
[Q] Nc1ncc(OCc2c(Cl)cccc2Cl)c(N)n1
In: Hey, which is lower on measured IC50, P or Q ? Mark your answer with the label of the selected entry.
Out: P
(P: 45 nM, Q: 3100 nM)
